Taken from patent US20240293512A1.

molecular target: human GLP-1 receptor (human, UniProt P43220 24-463); experiment: cell-based or functional assay
Bridge positions count the residues as written; N and C are the ends. Square brackets hold non-standard residues; d marks the D form. Ends that are not written are not given here. * marks the point of attachment. Acetyl(2-(4-imidazolyl)) = O=C(Cc1c[nH]cn1)*; Aib = CC(C)(N)C(=O)O
# note: exactly 30% is not below, so it is N; use Y for In vitro activity compared with native peptide (%) vs GLP-1 (cAMP EC50) strictly under it

Some entries whose results are on file:
1) H[Aib]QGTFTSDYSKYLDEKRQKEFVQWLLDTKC (bridge 16-20) [triple agonist of SEQ ID NO: 78] : N
2) Y[Aib]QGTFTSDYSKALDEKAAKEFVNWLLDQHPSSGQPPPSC (bridge 16-20) [triple agonist of SEQ ID NO: 101] : Y
3) Y[Aib]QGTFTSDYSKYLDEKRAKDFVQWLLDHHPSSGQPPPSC (bridge 16-20) [triple agonist of SEQ ID NO: 76] : Y
4) [Acetyl(2-(4-imidazolyl))][Aib]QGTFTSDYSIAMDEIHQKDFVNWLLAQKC (bridge 16-20) [triple agonist of SEQ ID NO: 92] : Y
5) Y[Aib]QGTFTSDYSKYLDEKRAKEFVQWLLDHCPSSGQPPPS (bridge 16-20) [triple agonist of SEQ ID NO: 96] : N

Consider H[Aib]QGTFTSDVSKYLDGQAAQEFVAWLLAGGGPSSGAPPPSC [triple agonist of SEQ ID NO: 10] . Does its In vitro activity compared with native peptide (%) vs GLP-1 (cAMP EC50) lie strictly below 30%?
N

Consider {Acetyl(2-(4-imidazolyl))}-[Aib]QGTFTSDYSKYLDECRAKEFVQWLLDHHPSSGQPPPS (bridge 15-19) [triple agonist of SEQ ID NO: 73] . Does its In vitro activity compared with native peptide (%) vs GLP-1 (cAMP EC50) lie strictly below 30%?
Y

Consider [Acetyl(2-(4-imidazolyl))]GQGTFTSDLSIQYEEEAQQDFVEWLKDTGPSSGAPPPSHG [triple agonist of SEQ ID NO: 20] . Does its In vitro activity compared with native peptide (%) vs GLP-1 (cAMP EC50) lie strictly below 30%?
Y

Consider Y[Aib]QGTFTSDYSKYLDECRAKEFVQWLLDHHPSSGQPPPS (bridge 16-20) [triple agonist of SEQ ID NO: 21] . Does its In vitro activity compared with native peptide (%) vs GLP-1 (cAMP EC50) lie strictly below 30%?
Y

Consider H[Aib]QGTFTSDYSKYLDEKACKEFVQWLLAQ (bridge 16-20) [triple agonist of SEQ ID NO: 31] . Does its In vitro activity compared with native peptide (%) vs GLP-1 (cAMP EC50) lie strictly below 30%?
N
